TARGET OR TEST SYSTEM: D(3) dopamine receptor (Homo sapiens)
Sequence (P35462 whole entry): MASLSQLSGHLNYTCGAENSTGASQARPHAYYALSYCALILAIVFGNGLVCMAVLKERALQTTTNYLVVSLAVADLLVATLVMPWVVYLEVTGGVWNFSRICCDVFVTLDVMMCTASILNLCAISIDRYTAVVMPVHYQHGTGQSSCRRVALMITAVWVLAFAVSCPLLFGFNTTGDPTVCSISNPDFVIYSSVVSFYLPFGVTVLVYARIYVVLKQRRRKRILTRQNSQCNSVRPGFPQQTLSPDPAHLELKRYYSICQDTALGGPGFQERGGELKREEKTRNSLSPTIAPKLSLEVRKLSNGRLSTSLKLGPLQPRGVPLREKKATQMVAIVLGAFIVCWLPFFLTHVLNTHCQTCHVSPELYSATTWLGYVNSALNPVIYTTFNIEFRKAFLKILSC
Hi! Could you tag entries with EC50 below 600 nM as criterion met, and those at or above as criterion not met? Much appreciated.

These solved cases illustrate the format of a correct answer.
STRUCTURE AS SMILES: O=C(NCCCCN1CCN(c2cccc(Cl)c2Cl)CC1)c1ccccc1
GROUP: criterion met
--
STRUCTURE AS SMILES: COc1ccccc1N1CCN(CCCCNC(=O)[C@H]2CC[C@@H](c3ccccc3)CC2)CC1
GROUP: criterion not met
--
STRUCTURE AS SMILES: O=C(NCCCCN1CCN(c2cccc(Cl)c2Cl)CC1)c1cccc2ccccc12
GROUP: criterion met
--
STRUCTURE AS SMILES: COc1ccccc1N1CCN(CCCCNC(=O)c2ccc3c(c2)Cc2ccccc2-3)CC1
GROUP: criterion met

API: query returns whether the compound falls strictly under 600 nM in EC50. Query: O=C(NCCCCN1CCN(c2cccc(Cl)c2Cl)CC1)[C@H]1CC[C@@H](c2ccccc2)CC1 criterion not met
